Item-by-item account of Kd
Tested system: human FGFR2b extracellular domain (human, UniProt P21802)
Sequence (P21802 22-377): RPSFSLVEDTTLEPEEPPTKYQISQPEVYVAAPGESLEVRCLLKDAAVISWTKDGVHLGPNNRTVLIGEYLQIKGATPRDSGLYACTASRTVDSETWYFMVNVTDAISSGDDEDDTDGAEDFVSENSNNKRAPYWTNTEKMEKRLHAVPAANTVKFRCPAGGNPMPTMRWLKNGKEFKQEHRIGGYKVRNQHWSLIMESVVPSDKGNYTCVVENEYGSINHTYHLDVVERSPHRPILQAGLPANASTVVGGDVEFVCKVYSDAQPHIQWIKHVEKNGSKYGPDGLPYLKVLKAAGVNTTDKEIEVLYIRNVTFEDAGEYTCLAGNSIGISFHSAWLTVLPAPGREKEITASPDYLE
Test: BLI
Quick reminder: number only, in nM, skip the unit.

// query Need Kd of 3G10 (antibody, V domains shown) VH: EVQLQQSGPELVKPGASVKMSCKASGYTFATYNMHWVKQTTGQGLEWIGAIYPDNGDTFYNRKFKDKATLTADKSSTTAYMQLSSLTSEDSAVYYCARGDFAYWGQGTLVTVSA VL: DVLMTQSPASLSASVGETVTITCGASENIYGALNWYQRKQGKSPQLLIYGATNLADGMSSRFSGSGSGRQYSLKISSLHPDDVATYYCQNVLSTPYTFGGGTKLEMK , thanks.
// result 6.25

// query Quick one: 3E3 (antibody, V domains shown) VH: QVQLQQPGAVLVKPGASVRMSCKASGYTFPYYNVHWVKRTPGQGLEWIGLIYPDNGDTSYNQKFTGKATLTADTSSSTAYMQLSSLTSEDSAVYYCARGGLDYWGQGTTLTVSA VL: DVQITQSPASLSASVGETVTITCGASENIYGALNWYQRKQGKSPQLLIYGATNLADGMSSRFSGSGSGRQYSLKISSLHPDDVATYYCQNVLSTPYTFGGGTKLEIK
// result 8.18

// query What do we get for 2B2 (antibody, V domains shown) VH: QLQLQQSGAELVKPGASVKMSCKASGYTFASYNLHWVKQTPGQGLEWIGLIYPENGDTSYNQKFKDKATLTADKSSTTAYIQLSSLASEDSAVYFCARGGFDYWGQGTTLTVSS VL: DIVMTQSQKFMSTSVGDRVSVTCKASQNVGTNVAWYQQKPGQSPKALIYSASYRYSGVPDRFTGSGSGTDYTLTISSVQAEDLALYYCQQHYSTPYTFGGGTKLELK ?
// result 6.18
